- Species on record: Homo sapiens
- assay_overview: Selectivity ratio of relative binding affinity for human ERalpha to relative binding affinity to human ERbeta
measure: Selectivity ratio

Reference set, count: 2
INSERT INTO measurements (compound, test_result) VALUES
  ('N#C[Se]CCCCCC(=O)Nc1ccc(C2=C(c3ccc(O)cc3)C3CC(S(=O)(=O)Oc4cccc(O)c4)C2O3)cc1 (stereo unspecified)', 15.6),
  ('N#C[Se]CCCCCC(=O)Nc1ccc(C2=C(c3ccc(O)cc3)C3CC(S(=O)(=O)Oc4cccc(F)c4)C2O3)cc1 (stereo unspecified)', 6.25);

P. N#C[Se]CCCCCC(=O)Nc1ccc(C2=C(c3ccc(O)cc3)C3CC(S(=O)(=O)Oc4ccccc4C(F)(F)F)C2O3)cc1 (stereo unspecified)
Q. COc1ccc(N(CC(F)(F)F)S(=O)(=O)C2CC3OC2C(c2ccc(NC(=O)CCC[Se]C#N)cc2)=C3c2ccc(O)cc2)cc1 (stereo unspecified)
R. N#C[Se]CCCCCC(=O)Nc1ccc(C2=C(c3ccc(O)cc3)C3CC(S(=O)(=O)N(CC(F)(F)F)c4ccccc4F)C2O3)cc1 (stereo unspecified)
Enquiry: // sort entries: Selectivity ratio, high to low Output spec: a listing of the labels in the requested order.
Return: R, P, Q

P. N#C[Se]CCCCCC(=O)Nc1ccc(C2=C(c3ccc(O)cc3)C3CC(S(=O)(=O)Oc4ccc(O)cc4)C2O3)cc1 (stereo unspecified)
Q. N#C[Se]CCCCCC(=O)Nc1ccc(C2=C(c3ccc(O)cc3)C3CC(S(=O)(=O)Oc4ccccc4O)C2O3)cc1 (stereo unspecified)
R. N#C[Se]CCCCCCCC(=O)Nc1ccc(C2=C(c3ccc(O)cc3)C3CC(S(=O)(=O)Oc4ccccc4)C2O3)cc1 (stereo unspecified)
S. N#C[Se]CCCCCC(=O)Nc1ccc(C2=C(c3ccc(O)cc3)C3CC(S(=O)(=O)Oc4ccccc4F)C2O3)cc1 (stereo unspecified)
Enquiry: Order field: Selectivity ratio | Direction: descending (largest first) When ranking, write the labels in the order the request describes.
Return: S, Q, P, R
(S: 44.5, Q: 26.9, P: 10.7, R: 0.34)

I. CCN(c1ccc(Cl)cc1)S(=O)(=O)C1CC2OC1C(c1ccc(NC(=O)CCCCC[Se]C#N)cc1)=C2c1ccc(O)cc1 (stereo unspecified)
II. CCN(c1cccc(OC)c1)S(=O)(=O)C1CC2OC1C(c1ccc(NC(=O)CCCCC[Se]C#N)cc1)=C2c1ccc(O)cc1 (stereo unspecified)
Enquiry: Hi, I'm comparing I with II and wondering which one has the bigger number for Selectivity ratio. Any idea? // return label of chosen record
Return: I

I. N#C[Se]CCCCCC(=O)Nc1ccc(C2=C(c3ccc(O)cc3)C3CC(S(=O)(=O)N(CC(F)(F)F)c4ccc(F)cc4)C2O3)cc1 (stereo unspecified)
II. N#C[Se]CCCCCC(=O)Nc1ccc(C2=C(c3ccc(O)cc3)C3CC(S(=O)(=O)Oc4ccccc4Cl)C2O3)cc1 (stereo unspecified)
III. N#C[Se]CCCCCC(=O)Nc1ccc(C2=C(c3ccc(O)cc3)C3CC(S(=O)(=O)Oc4ccc(F)cc4)C2O3)cc1 (stereo unspecified)
IV. CCN(c1ccc(OC)cc1)S(=O)(=O)C1CC2OC1C(c1ccc(NC(=O)CCCCC[Se]C#N)cc1)=C2c1ccc(O)cc1 (stereo unspecified)
Enquiry: Put the entries in order of Selectivity ratio, starting with the largest number. Reply with the item labels sorted in the order that was asked for.
Return: IV, I, II, III
(IV: 730, I: 18.9, II: 5.4, III: 0.55)
